This collection of values is drawn from the supplement of paper PMC10126150.

tested on: ATP; assay: switch fluorescence ratio, 500 uM ATP over buffer (Cy3 cluster intensity, sum of 5 cycles each) (fold (ratio)); higher = stronger signal-on switching upon ATP binding; sequences stand for … in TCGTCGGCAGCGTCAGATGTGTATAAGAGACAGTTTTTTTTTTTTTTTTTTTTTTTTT…TC; conditions: aptamer strand: ATP DNA aptamer (quencher-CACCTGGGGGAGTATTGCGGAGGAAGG + anchor), 100 nM annealed; ATP concentration: 500 uM;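 note: ATP exposure 15 min at 22 °C before imaging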
reported_property: switch fluorescence ratio
The response must contain the number and no unit.

*Q* Give ATP switch fluorescence ratio for "AAATCGGAAT"
*A* 1.25

*Q* // fetch ATP switch fluorescence ratio for "ATTACTGCAT"
*A* 1.07

*Q* switch fluorescence ratio of "GCATAAACGC" on ATP?
*A* 1.06

*Q* Find switch fluorescence ratio (ATP) for the entry "GCCACGAGGG"
*A* 1.02

*Q* For the record "TTTTACTTCT" , what value of switch fluorescence ratio is listed for ATP?
*A* 1.04

*Q* Checklist item: switch fluorescence ratio tested on ATP, entry "ATTACGGAAC" , value?;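 note: ATP exposure 15 min at 22 °C before imaging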
*A* 1.26

*Q* State its switch fluorescence ratio on ATP: "ATACGGGAAG"
*A* 1.05

*Q* Notebook entry, ATP assay: switch fluorescence ratio of "TCCACGGTCT" = ?
*A* 1.03

*Q* What is its switch fluorescence ratio for ATP? Entry: "CTGTTAGGAT"
*A* 0.99

*Q* Please provide the recorded switch fluorescence ratio for "GGAGTAGCAG" , tested on ATP.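 Note: ATP exposure 15 min at 22 °C before imaging.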
*A* 1.02

* * *

Would you mind telling me the reported switch fluorescence ratio of each entry?
tested on: ATP; assay: switch fluorescence ratio, 500 uM ATP over buffer (Cy3 cluster intensity, sum of 5 cycles each) (fold (ratio)); higher = stronger signal-on switching upon ATP binding; sequences stand for … in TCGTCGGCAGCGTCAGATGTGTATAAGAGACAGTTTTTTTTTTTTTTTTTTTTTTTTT…TC; conditions: aptamer strand: ATP DNA aptamer (quencher-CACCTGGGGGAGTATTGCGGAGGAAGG + anchor), 100 nM annealed; ATP concentration: 500 uM;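 note: ATP exposure 15 min at 22 °C before imaging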
Response field accepts a number only; no unit should be typed.

*Q* Given the sequence "TATACTTTTT" , what is its reported switch fluorescence ratio?
*A* 1.01

*Q* For the sequence shown here, "TATCCAGTGG" , give the reported switch fluorescence ratio.
*A* 1.01

*Q* What does the data say about its switch fluorescence ratio? Entry: "GTTATTCATG"
*A* 0.988

*Q* What does the record list as switch fluorescence ratio for "TCGAGTAGGG" ?
*A* 0.995

*Q* Which switch fluorescence ratio is listed for "ATTGAAGATG" ?
*A* 0.971

*Q* Any idea what its switch fluorescence ratio is? The sequence is "TTGCGAGGTG"
*A* 1.04

*Q* # input sequence: "ATCTAAAGTT" ; wanted: its switch fluorescence ratio
*A* 1.02

*Q* Need switch fluorescence ratio, item "TCTTTGAAGT"
*A* 1

*Q* May I ask what switch fluorescence ratio has been recorded for "CGTGTATATG" ?
*A* 1.01

*Q* Fill in: switch fluorescence ratio of "AAGCAGAGGC" is ___
*A* 1

* * *

Provide the reported switch fluorescence ratio of each item.
system: ATP; assay: switch fluorescence ratio, 500 uM ATP over buffer (Cy3 cluster intensity, sum of 5 cycles each) (fold (ratio)); higher = stronger signal-on switching upon ATP binding; sequences stand for … in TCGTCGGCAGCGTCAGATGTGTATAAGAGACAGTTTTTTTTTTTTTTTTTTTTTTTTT…TC; conditions: aptamer strand: ATP DNA aptamer (quencher-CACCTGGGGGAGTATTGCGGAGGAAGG + anchor), 100 nM annealed; ATP concentration: 500 uM;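 note: ATP exposure 15 min at 22 °C before imaging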
Reply briefly: the number, and no unit.

*Q* Which switch fluorescence ratio value is on record for "TATCGGGAGC" ?
*A* 0.986

*Q* // query switch fluorescence ratio value for entry "AAAATACTAT"
*A* 1.02

*Q* # query: switch fluorescence ratio of entry "TGATGTTTGA"
*A* 0.995

*Q* Given the entry "ATTTTCGGCT" , report its measured switch fluorescence ratio.
*A* 0.99

*Q* What does the record list as switch fluorescence ratio for "TCGGGGCGAG" ?
*A* 1.02

*Q* Would you mind telling me what switch fluorescence ratio value was observed for "GTAAATATAG" ?
*A* 0.981

*Q* Need switch fluorescence ratio, item "TGGTCCATGG"
*A* 1.01

*Q* // switch fluorescence ratio lookup, key: "AAGACTTTTT"
*A* 1.02

*Q* Value lookup for switch fluorescence ratio; key = "TTAAGTATTG"
*A* 0.996

*Q* Look up switch fluorescence ratio for this sequence: "TAGCGCATGG"
*A* 1.08

*Q* Record request: switch fluorescence ratio value, item "TTTTTATGAT"
*A* 0.983

*Q* Look up switch fluorescence ratio for this sequence: "ACGGGGACGG"
*A* 1.03

*Q* Bench note: what switch fluorescence ratio did "TAGTCTGGGC" show?
*A* 0.986

*Q* Given the entry "GTCGGGGATA" , report its measured switch fluorescence ratio.
*A* 1

*Q* May I ask what switch fluorescence ratio has been recorded for "AAAAATATTT" ?
*A* 1.61

*Q* Fill blank: measured switch fluorescence ratio of the sequence "AGACAAGGGT" is ____.
*A* 1.01

*Q* What measured switch fluorescence ratio goes with "CAATCTAAAT" ?
*A* 0.969

*Q* Find the recorded switch fluorescence ratio belonging to "GAGGGCCTTA" and report it.
*A* 0.989

*Q* Which switch fluorescence ratio is listed for "ACGGGCTTCG" ?
*A* 1.05

*Q* Endpoint output: switch fluorescence ratio of "AGCTAGCAGG" . Value?
*A* 0.974
